ASSAY_COMMENT: Bioabsorption: plasma concentration measurement in rats with oral administration
Type: in vivo, rat
STUDY_CONDITIONS: male, SD, rat, plasma, 10 mg/kg, 0.25 h, read-out: plasma concentration, Mean, time point 0.25 h
MEASURED_PROPERTY: concentration at 0.25 h (ng/mL)

[P] O=c1oc2ccccc2c(O)c1O
[Q] O=c1oc2ccc(Cl)cc2c(O)c1O
Field: lower recorded concentration at 0.25 h (choose P or Q ) Identify your pick by its label.
P
(P: 600 ng/mL, Q: 7400 ng/mL)

----------
Listing of recorded Lesion Index after 3 days by entry.
System: circulatory insufficiency model of rats induced by injection of lauric-acid into their femoral artery
ASSAY_COMMENT: Circulatory insufficiency model induced by lauric-acid in rats (lesion index)
Assay type: in vivo, rat
Design: key: summed toe lesion grades, +5 if heel reached; max 25 points
STUDY_CONDITIONS: male Wistar rats; 30 mg/kg multiple oral dosing (1 h prior to and 3 h after lauric-acid, then twice daily); 3 days after lauric-acid injection; average, max 25 points
// response body must contain only the number

The molecule identified as CC(C)CCCOc1c(O)c2cc(OCCO)ccc2oc1=O registered its Lesion Index after 3 days at 2.3

Please fill in: Lesion Index after 3 days reported for CC(C)=CCCC(C)=CCOc1c(O)c2ccc(O)cc2oc1=O = 2.6

The recorded Lesion Index after 3 days for CCCCCCCCOc1c(O)c2cc(OCCCC(=O)O)ccc2oc1=O is 2.2

Value of measured Lesion Index after 3 days for the entry CCCCCCCCOc1c(O)c2c(OCCCCC(=O)O)cccc2oc1=O : 3.0

Record summary for CCCCCCCCOc1c(O)c2ccc(O)cc2oc1=O : reported Lesion Index after 3 days = 3.0

Hello, the source for this data is patent US20110021621A1, in case you need it.
